Readings of protein stability index for the listed sequences
- MEASUREMENT_PROTOCOL: protein stability index of a GFP-peptide fusion (GPS, HEK-293T) (PSI 1-6); higher = more stable;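 note: 24-mer peptide tiles fused after GFP, lentivirally expressed, FACS-sorted into six equal bins by GFP/DsRed ratio, decoded by Illumina sequencing, PSI is the read-weighted mean bin number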
- RUN_PARAMETERS: treatment: MLN4924 1 uM, 8 h; c terminus: a fixed tail appended
Form rule: numeric answer, no unit written next to it.

Some solved entries appear below for comparison.
Input: # lookup: protein stability index of LLVQFVCQEYLARNARIVHLVEET [CPXM2]
Output: 2.63

Input: # lookup: protein stability index of SIPLMGFEFEVRVCDSCHEAITDE [WDFY2]
Output: 3.54

Input: # lookup: protein stability index of LEMCVDARTFGNEARFIRRSCTPN [KMT2E]
Output: 3.13

Continuing:
Input: # lookup: protein stability index of GELRSKSGHKLYIFLFQDILVLTR [NET1]
Output: 1.75

---

- MEASUREMENT_PROTOCOL: protein stability index of a GFP-peptide fusion (GPS, HEK-293T) (PSI 1-6); higher = more stable
- RUN_PARAMETERS: treatment: MLN4924 1 uM, 8 h; c terminus: a fixed tail appended
Please use the following protein stability index ranges when assigning a class: A (below 3), B (3 to below 4), C (4 or more)

Input: // return the class label for PDDYRCSYRIHNGQKLVVPGLLGS [FBXO3]
Output: A

Input: // return the class label for NEEIRAVGRLKRERSMSENAVRQN [MFF]
Output: C

Input: // return the class label for IALVENIPEGLNYSENAPFHLSLF [PLD5]
Output: A

Continuing:
Input: // return the class label for YIATQGSLPETFGDFWRMIWEQRS [PTPRD]
Output: A

Input: // return the class label for HMEALEIAANLENKATNTDHLTTV [C8orf76]
Output: C

Input: // return the class label for VGALLVYDIAKHLTYENVERWLKE [RAB11A]
Output: A

---

Readings of protein stability index for the listed sequences
- MEASUREMENT_PROTOCOL: protein stability index of a GFP-peptide fusion (GPS, HEK-293T) (PSI 1-6); higher = more stable
- RUN_PARAMETERS: treatment: DMSO; c terminus: a fixed tail appended
Form rule: numeric answer, no unit written next to it.

Input: # lookup: protein stability index of IDEVLLHQDVDLVCINLPPPLTRQ [GFOD1]
Output: 2.83

Input: # lookup: protein stability index of LGPLGSTAFLPDSKCLVDDGTGRM [GALNT9]
Output: 3.89

Input: # lookup: protein stability index of KLHEIFRGLHEDLQGVPERLLGTA [VTI1B]
Output: 2.48

Input: # lookup: protein stability index of DWNEWRDYHLLHPVENIPEIILYW [SLC25A25]
Output: 2.35

Input: # lookup: protein stability index of LGIGMDSCVIPLRHGGLSLVQTTD [SEPHS2]
Output: 2.8

Input: # lookup: protein stability index of DLSDNRNEDPLVLLAWRCTKLSLL [FBXO33]
Output: 2.54

Input: # lookup: protein stability index of VKVHGLLKTFVKQTDHIKGIRQIT [GFOD1]
Output: 2.53

Input: # lookup: protein stability index of SVDIVSSHWDLNHTHPSACQGQRL [PLD5]
Output: 3.64

Input: # lookup: protein stability index of GHWTNVTPMATKRSGAGVALLNDH [KLHL12]
Output: 3.48

Input: # lookup: protein stability index of PDQLPQNNTLVALPIVAIENILSF [FBXO28]
Output: 2.34

Continuing:
Input: # lookup: protein stability index of RWWEDLERDFPCPVCRKTSRYRSL [TRIM39]
Output: 2.36

Input: # lookup: protein stability index of LLELQSQQACTHTKETEQLRSQLQ [CCDC89]
Output: 4.06

Input: # lookup: protein stability index of CFRSLAASSPSIRQKKLMHKLQEE [CCDC70]
Output: 3.22

Input: # lookup: protein stability index of EVLDGVEDAEGEEEEEEEEEEEDD [FKBP8]
Output: 5.46

Input: # lookup: protein stability index of KPGPITLTVAKCWDPSPRGCFTLP [DVL3]
Output: 2.41

Input: # lookup: protein stability index of RQKKLMHKLQEEKAFREEMKIFRE [CCDC70]
Output: 3.37

Input: # lookup: protein stability index of YKPPALKKSNSPGTASSGSSRLPQ [ZC2HC1A]
Output: 4.46

Input: # lookup: protein stability index of AQKQRLERALDATEVPFSITTDNL [TEKT4]
Output: 4.72

Input: # lookup: protein stability index of RTVNALEIELQAQHNLRDSLENTL [KRT34]
Output: 3.41

---

- MEASUREMENT_PROTOCOL: protein stability index of a GFP-peptide fusion (GPS, HEK-293T) (PSI 1-6); higher = more stable
- RUN_PARAMETERS: treatment: DMSO; c terminus: a fixed tail appended
Readings of protein stability index for the listed sequences
Form rule: numeric answer, no unit written next to it.

Input: # lookup: protein stability index of SSSGDLADLENEDIFPELDDILYH [DLC1]
Output: 4.77

Input: # lookup: protein stability index of HLGKEQSRRDDLEALGHMFMYFLR [CSNK1G1]
Output: 2.61

Input: # lookup: protein stability index of RQARKKGRHLELANQKLSEKLAAG [CCDC3]
Output: 4.78

Input: # lookup: protein stability index of DDATLSRLELERKIESLMDEIEFL [PRPH]
Output: 4

Input: # lookup: protein stability index of MVAHDETGGLLPIKRTIRVLDVNN [NET1]
Output: 3.27

Input: # lookup: protein stability index of FNMMEQKKRVSMILQSPAFCEELE [ADD1]
Output: 3.27

Input: # lookup: protein stability index of DENYNLLPHGVNFQDAIFPDTQEN [CCDC3]
Output: 4.92

Input: # lookup: protein stability index of VKARKQEIIKVTEQLIEAINNGDF [CAMK2D]
Output: 2.59

Input: # lookup: protein stability index of VVHVSFPEVTSALLESLNQQRLQG [ZBTB22]
Output: 2.27

Input: # lookup: protein stability index of EDTSNDESSILGTDIDLQTIDNDI [M1AP]
Output: 5.56

Continuing:
Input: # lookup: protein stability index of GHISLRRENSSDSPKELKRRNSSS [DLC1]
Output: 5.03

Input: # lookup: protein stability index of NPYTELLVLKAHHDIVRFLVQLDD [WDR41]
Output: 2.84

Input: # lookup: protein stability index of LTQRQVNITVQKKVSQWWERLTKQ [HACD3]
Output: 2.55

Input: # lookup: protein stability index of IRMIVRGTLGSCSSSSECLEDSTM [PLK2]
Output: 2.3

Input: # lookup: protein stability index of AAIVVNGHGMTPLKVAAESCKADV [FEM1B]
Output: 3.38

Input: # lookup: protein stability index of PFTVYQVRWLRPVHRQLGEANEEF [AUP1]
Output: 2.43

Input: # lookup: protein stability index of FSVAPHETQTQRGGEFQCGLEAAS [RNF180]
Output: 3.37

---

- MEASUREMENT_PROTOCOL: protein stability index of a GFP-peptide fusion (GPS, HEK-293T) (PSI 1-6); higher = more stable
- RUN_PARAMETERS: treatment: MLN4924 1 uM, 8 h; c terminus: a fixed tail appended
QUANTITY_MEASURED: protein stability index

Input: # lookup: protein stability index of ELWIYNMETGRWKKINTEGDVPPS [KLHDC2]
Output: 3.61

Input: # lookup: protein stability index of SSKFYDLFLMECEESPNGSEGACE [RHOBTB1]
Output: 3.79

Input: # lookup: protein stability index of FHYLVFDLVTGGELFEDIVAREYY [CAMK2B]
Output: 3.05

Here is another sequence to look at.
Input: # lookup: protein stability index of DEPTFKVLLKTADPRYELPSRKYI [ZBED1]
Output: 3.19

---

- MEASUREMENT_PROTOCOL: protein stability index of a GFP-peptide fusion (GPS, HEK-293T) (PSI 1-6); higher = more stable
- RUN_PARAMETERS: treatment: DMSO; c terminus: a fixed tail appended
Mark not fulfilled for protein stability index values under 3, and fulfilled for everything at or above.

Input: // inclusive: protein stability index at least 3? input: YAPSCAKCKKKITGEIMHALKMTW [PDLIM7]
Output: not fulfilled

Input: // inclusive: protein stability index at least 3? input: LQFLYTGQLDEKEKDLVGLAQIAE [RHOBTB1]
Output: not fulfilled

Input: // inclusive: protein stability index at least 3? input: VFLIIYYLDPSVLSGVSCFVMFLC [ARL6IP1]
Output: not fulfilled

Input: // inclusive: protein stability index at least 3? input: YESHSTSELEDLTEPEQRELKTKL [TPD52L3]
Output: fulfilled

Continuing:
Input: // inclusive: protein stability index at least 3? input: LLGAVNFFVSSINTLVTKTMEDTL [ARFIP2]
Output: fulfilled

Input: // inclusive: protein stability index at least 3? input: AKLAINQGMEVDLVTGLAIEEACY [AUH]
Output: not fulfilled

Input: // inclusive: protein stability index at least 3? input: DRGSCVSTTEGIQLAKELGATYLE [RHOBTB3]
Output: fulfilled

Input: // inclusive: protein stability index at least 3? input: KNEVGGLIKALKIFQEKHVNLLHI [TPH1]
Output: not fulfilled

Input: // inclusive: protein stability index at least 3? input: RRRFREKKKAIQEEEERDQALQAK [YJU2B]
Output: fulfilled

Input: // inclusive: protein stability index at least 3? input: EVREPALRPAKRELRGAEPGRPAR [SPSB4]
Output: fulfilled

Input: // inclusive: protein stability index at least 3? input: HLIRHQITHTREEQPHGRSRRREQ [ZNF8]
Output: fulfilled

Input: // inclusive: protein stability index at least 3? input: SSTKPPKSRRKAALSSPRSRKNAT [INTS3]
Output: fulfilled
